Values from ChEMBL document CHEMBL2163233

# PROTOCOL_NOTES: in vivo
# CONDITION_NOTES: Sprague-Dawley, rat, po, 10 umol/kg
OBSERVATION_TYPE: Cmax (nM)

> print(dat)
                                   molecule  observation.type  test.value
1  O=C(NCc1ccc(F)c(C(F)(F)F)c1)C1c2ccccc2C(=O)N1CCc1ncc(F)cn1 (stereo not given)              Cmax         100
2  O=C(NCc1cccc(OC(F)(F)F)c1)C1c2ccccc2C(=O)N1CCc1ncc(F)cn1 (stereo not given)              Cmax          90
3  O=C(NCc1ccc(OC(F)(F)F)cc1)C1c2ccccc2C(=O)N1CCc1ccccn1 (stereo in doubt; 16A)              Cmax         600
4  O=C(NCc1ccc(OC(F)(F)F)cc1)C1c2ccccc2C(=O)N1CCc1ncc(F)cn1 (stereo not given)              Cmax         800
5  O=C(NCc1ccc(OC(F)(F)F)cc1)C1c2ccccc2C(=O)N1C1CCOCC1 (single isomer, unassigned; enantiomer 2)              Cmax         600
